Parameter: pIC50. Scope: all listed entries.
molecular target: Gamma-secretase; experiment: Inhibition of gamma-secretase in human SH-SY5Y cells overexpressing APP assessed as amyloid beta-40 production by electrochemiluminescent assay
pIC50: −log10 of the molar value.
PROPERTY: pIC50

> print(dat)
                            smiles.structure      measured.on  property  censor.symbol  data.value
 1  COc1cc(/C=C/c2nc3cc(Br)ccc3c(=O)[nH]2)ccc1-n1cnc(C)c1  Gamma-secretase     pIC50              =        5.32
 2  COc1cc(/C=C/c2nc3ccccc3c(=O)n2C)ccc1-n1cnc(C)c1  Gamma-secretase     pIC50              <        5.00
 3  COc1cc(/C=C/c2nc(NCc3ccccc3)c3c4c(sc3n2)CCC4)ccc1-n1cnc(C)c1  Gamma-secretase     pIC50              <        5.00
 4  COc1cc(/C=C/c2nc3cc(S(C)(=O)=O)ccc3c(=O)[nH]2)ccc1-n1cnc(C)c1  Gamma-secretase     pIC50              =        5.17
 5  COc1cc(/C=C/c2nc3cccc(F)c3c(=O)[nH]2)ccc1-n1cnc(C)c1  Gamma-secretase     pIC50              <        5.00
 6  COc1cc(/C=C/c2nc3sc4c(c3c(=O)[nH]2)CCC4)ccc1-n1cnc(C)c1  Gamma-secretase     pIC50              =        5.41
 7  COc1cc(/C=C/c2nc3cc(C(F)(F)F)ccc3c(=O)[nH]2)ccc1-n1cnc(C)c1  Gamma-secretase     pIC50              =        5.43
 8  CCOC(=O)c1sc2nc(/C=C/c3ccc(-n4cnc(C)c4)c(OC)c3)nc(N)c2c1C  Gamma-secretase     pIC50              =        5.43
 9  COc1cc(/C=C/c2nc(N)nc(Nc3ccccc3)n2)ccc1-n1cnc(C)c1  Gamma-secretase     pIC50              =        5.48
10  COc1cc(/C=C/c2nc(N)c3ccccc3n2)ccc1-n1cnc(C)c1  Gamma-secretase     pIC50              =        5.21
11  COc1cc(/C=C/c2nc(N)c3c4c(sc3n2)CCCCC4)ccc1-n1cnc(C)c1  Gamma-secretase     pIC50              =        5.69
12  COc1cc(/C=C/c2nc3cc(Cl)ccc3c(=O)[nH]2)ccc1-n1cnc(C)c1  Gamma-secretase     pIC50              <        5.00
13  COc1cc(/C=C/c2nc3scc(C)c3c(=O)[nH]2)ccc1-n1cnc(C)c1  Gamma-secretase     pIC50              <        5.00
14  COc1cc(/C=C/c2nc(N)c3c(n2)oc2ccccc23)ccc1-n1cnc(C)c1  Gamma-secretase     pIC50              =        5.53
15  COc1cc(/C=C/c2nc3ccccc3c(=O)n2-c2ccccc2)ccc1-n1cnc(C)c1  Gamma-secretase     pIC50              <        5.00
16  COc1cc(/C=C/c2nc3sc(C)c(C)c3c(=O)[nH]2)ccc1-n1cnc(C)c1  Gamma-secretase     pIC50              <        5.00
17  COc1cc(/C=C/c2nc3ccccc3c(=O)[nH]2)ccc1-n1cnc(C)c1  Gamma-secretase     pIC50              =        5.31
18  COc1cc(/C=C/c2nc3ccc(F)cc3c(=O)[nH]2)ccc1-n1cnc(C)c1  Gamma-secretase     pIC50              <        5.00
19  COc1cc(/C=C/c2nc3ccccc3[nH]2)ccc1-n1cnc(C)c1  Gamma-secretase     pIC50              <        5.00

Value source: ChEMBL document CHEMBL1641467
